Assay system mMC4R (Mus musculus, UniProt P56450); read-out recorded as Ki.
Where a SMILES comes first, the peptide text is derived from it. [ ]: non-standard residue; d: D form. dPhe(4-I) = N[C@H](Cc1ccc(I)cc1)C(=O)O; d2Nal = N[C@H](Cc1ccc2ccccc2c1)C(=O)O
Please reply with the bare figure in nM and do not write the unit itself.

Would you please look over these solved cases?
CC(=O)N[C@H](Cc1ccc2ccccc2c1)C(=O)N[C@@H](CCCNC(=N)N)C(=O)N[C@H](Cc1ccc(I)cc1)C(=O)N[C@H](Cc1ccc2ccccc2c1)C(N)=O [20 | COR2-15, Ac-DNal(2’)-Arg-DPhe(pI)-DNal(2’)-NH2] (Ac-[d2Nal]R[dPhe(4-I)][d2Nal]-NH2) = 320
CC(=O)N[C@H](Cc1ccc2ccccc2c1)C(=O)N[C@@H](CCCNC(=N)N)C(=O)N[C@H](Cc1ccc(I)cc1)C(=O)N[C@H](CCCCN)C(N)=O [19 | COR1-29-7, Ac-DNal(2’)-Arg-DPhe(pI)-DLys-NH2] = 3.2
CC(=O)N[C@H](Cc1ccc2ccccc2c1)C(=O)N[C@@H](CCCNC(=N)N)C(=O)N[C@@H](Cc1c[nH]c2ccccc12)C(=O)N[C@H](Cc1ccc2ccccc2c1)C(N)=O [17 | COR1-60, Ac-DNal(2’)-Arg-Trp-DNal(2’)-NH2] (Ac-[d2Nal]RW[d2Nal]-NH2) = 100

Here's the next entry for you.
Request: Field: Ki (mMC4R (Mus musculus, UniProt P56450)). Entry: CC(=O)N[C@H](Cc1ccc2ccccc2c1)C(=O)N[C@@H](CCCNC(=N)N)C(=O)N[C@H](Cc1ccc2ccccc2c1)C(=O)N[C@@H](CCCNC(=N)N)C(N)=O [15 | COR2-93, Ac-DNal(2’)-Arg-DNal(2’)-Arg-NH2] (Ac-[d2Nal]R[d2Nal]R-NH2)
Result: 5
